molecular target: T1, AFP158/HLA-A*02:01 complex (human); assay: SPR, scFv captured, pMHC in flow;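 note: complex injected at several concentrations over crude scFv, association then running-buffer dissociation, KD estimated from kinetic on- and off-rate constants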
T1 construct: flowed over the chip in SPR; also called AFP158 pro
Mark Met only when Kd stays strictly below 100 nM. Values equal to the cut-off are Not met.

Binder	Label value
HG56S (scFv, AS170036 VL1VH1 scFv mutein) scFv: QSALTQPRSVSGSPGQSVTISCAGTSSDVGSENYVSWYQQHPGKAPKLMIYQVNKRASGVPDRFSGSKSGNTASLTISGLQAEDEADYYCASYRSSDHNIVFGGGTKLTVLGGGGSGGGGSGGGGSEVQLVESGGGLVQPGGSLRLSCAASGFTFSSYAMSWVRQAPGKGLEWVSTINSGTSSPYYADSVKGRFTISRDNSKNTLYLQMNSLRAEDTAVYYCAKNFFDGSWFLGPPAMDYWGQGTLVTVSSHHHHHH	Not met
HL107I (scFv, AS170036 VL1VH1 scFv mutein) scFv: QSALTQPRSVSGSPGQSVTISCAGTSSDVGSENYVSWYQQHPGKAPKLMIYQVNKRASGVPDRFSGSKSGNTASLTISGLQAEDEADYYCASYRSSDHNIVFGGGTKLTVLGGGGSGGGGSGGGGSEVQLVESGGGLVQPGGSLRLSCAASGFTFSSYAMSWVRQAPGKGLEWVSTINSGTGSPYYADSVKGRFTISRDNSKNTLYLQMNSLRAEDTAVYYCAKNFFDGSWFIGPPAMDYWGQGTLVTVSSHHHHHH	Not met
HG56Y (scFv, AS170036 VL1VH1 scFv mutein; also called AS170036 VL1VH1-VHG56Y) scFv: QSALTQPRSVSGSPGQSVTISCAGTSSDVGSENYVSWYQQHPGKAPKLMIYQVNKRASGVPDRFSGSKSGNTASLTISGLQAEDEADYYCASYRSSDHNIVFGGGTKLTVLGGGGSGGGGSGGGGSEVQLVESGGGLVQPGGSLRLSCAASGFTFSSYAMSWVRQAPGKGLEWVSTINSGTYSPYYADSVKGRFTISRDNSKNTLYLQMNSLRAEDTAVYYCAKNFFDGSWFLGPPAMDYWGQGTLVTVSSHHHHHH	Met
HG56R (scFv, AS170036 VL1VH1 scFv mutein) scFv: QSALTQPRSVSGSPGQSVTISCAGTSSDVGSENYVSWYQQHPGKAPKLMIYQVNKRASGVPDRFSGSKSGNTASLTISGLQAEDEADYYCASYRSSDHNIVFGGGTKLTVLGGGGSGGGGSGGGGSEVQLVESGGGLVQPGGSLRLSCAASGFTFSSYAMSWVRQAPGKGLEWVSTINSGTRSPYYADSVKGRFTISRDNSKNTLYLQMNSLRAEDTAVYYCAKNFFDGSWFLGPPAMDYWGQGTLVTVSSHHHHHH	Not met

# evaluate next
Input line: Hello, is Kd of the following binder strictly smaller than 100 nM? HF101Y (scFv, AS170036 VL1VH1 scFv mutein) scFv: QSALTQPRSVSGSPGQSVTISCAGTSSDVGSENYVSWYQQHPGKAPKLMIYQVNKRASGVPDRFSGSKSGNTASLTISGLQAEDEADYYCASYRSSDHNIVFGGGTKLTVLGGGGSGGGGSGGGGSEVQLVESGGGLVQPGGSLRLSCAASGFTFSSYAMSWVRQAPGKGLEWVSTINSGTGSPYYADSVKGRFTISRDNSKNTLYLQMNSLRAEDTAVYYCAKNFYDGSWFLGPPAMDYWGQGTLVTVSSHHHHHH
Output line: Not met

Reference source for all entries: patent US20240279318A1
